# System: CYP2C8 (Homo sapiens)
# Construct: Pooled human microsomes and selective CYP probe substrates were used; from tissue; host or cells: pooled human liver microsomes
# Sequence (P10632 whole entry): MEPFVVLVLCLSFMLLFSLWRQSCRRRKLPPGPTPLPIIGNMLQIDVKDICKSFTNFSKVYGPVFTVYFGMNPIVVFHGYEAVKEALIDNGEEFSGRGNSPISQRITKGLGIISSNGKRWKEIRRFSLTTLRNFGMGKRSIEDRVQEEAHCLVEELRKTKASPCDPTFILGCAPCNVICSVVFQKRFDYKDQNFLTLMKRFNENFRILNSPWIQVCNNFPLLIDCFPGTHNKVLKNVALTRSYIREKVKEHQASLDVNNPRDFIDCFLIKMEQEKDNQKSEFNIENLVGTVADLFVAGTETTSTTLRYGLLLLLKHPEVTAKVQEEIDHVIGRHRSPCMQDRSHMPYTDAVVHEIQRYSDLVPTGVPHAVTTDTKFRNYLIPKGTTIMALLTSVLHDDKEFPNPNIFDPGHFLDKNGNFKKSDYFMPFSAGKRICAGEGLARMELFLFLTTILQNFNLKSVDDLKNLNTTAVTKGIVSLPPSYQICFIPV
# Assay comment: Time-dependent inhibition of CYP2C8 in human liver microsomes
# Assay type: in vitro ADME
# Condition details: pooled human liver microsomes; CYP2C8, 50 μM, human liver microsomes, time zero; read-out: % Activity NADPH T0
Measurement type: activity at 0 min, 50 µM (%)

{"Mol": "C[C@H]1CC[C@H](N2CC(=O)N(Cc3ccc(F)c(F)c3)C3(CN(C(N)=O)C3)C2=O)CC1", "System": "CYP2C8 (Homo sapiens)", "Measurement type": "activity at 0 min, 50 µM", "Result value": 104}
{"Mol": "C[C@H]1CC[C@H](N2CC(=O)N(Cc3ccc(Cl)cc3)C3(CN(C(N)=O)C3)C2=O)CC1", "System": "CYP2C8 (Homo sapiens)", "Measurement type": "activity at 0 min, 50 µM", "Result value": 100}
{"Mol": "CC(C)N1CC(=O)N(Cc2ccc(Cl)c(F)c2)C2(CN(c3cccnn3)C2)C1=O", "System": "CYP2C8 (Homo sapiens)", "Measurement type": "activity at 0 min, 50 µM", "Result value": 110}
{"Mol": "Cc1cc(CN2C(=O)CN([C@H]3CC[C@H](C)CC3)C(=O)C23CN(C(N)=O)C3)ccc1F", "System": "CYP2C8 (Homo sapiens)", "Measurement type": "activity at 0 min, 50 µM", "Result value": 86}
{"Mol": "CC(C)N1CC(=O)N(Cc2ccc(C(F)(F)F)cc2)C2(CN(c3cccnn3)C2)C1=O", "System": "CYP2C8 (Homo sapiens)", "Measurement type": "activity at 0 min, 50 µM", "Result value": 106}
{"Mol": "C[C@H]1CC[C@H](N2CC(=O)N(Cc3ccc(F)c(Cl)c3)C3(CN(C(N)=O)C3)C2=O)CC1", "System": "CYP2C8 (Homo sapiens)", "Measurement type": "activity at 0 min, 50 µM", "Result value": 109}

###

# System: CYP3A4 (Homo sapiens)
# Construct: Pooled human microsomes and selective CYP probe substrates were used; from tissue; host or cells: pooled human liver microsomes
# Sequence (P08684 whole entry): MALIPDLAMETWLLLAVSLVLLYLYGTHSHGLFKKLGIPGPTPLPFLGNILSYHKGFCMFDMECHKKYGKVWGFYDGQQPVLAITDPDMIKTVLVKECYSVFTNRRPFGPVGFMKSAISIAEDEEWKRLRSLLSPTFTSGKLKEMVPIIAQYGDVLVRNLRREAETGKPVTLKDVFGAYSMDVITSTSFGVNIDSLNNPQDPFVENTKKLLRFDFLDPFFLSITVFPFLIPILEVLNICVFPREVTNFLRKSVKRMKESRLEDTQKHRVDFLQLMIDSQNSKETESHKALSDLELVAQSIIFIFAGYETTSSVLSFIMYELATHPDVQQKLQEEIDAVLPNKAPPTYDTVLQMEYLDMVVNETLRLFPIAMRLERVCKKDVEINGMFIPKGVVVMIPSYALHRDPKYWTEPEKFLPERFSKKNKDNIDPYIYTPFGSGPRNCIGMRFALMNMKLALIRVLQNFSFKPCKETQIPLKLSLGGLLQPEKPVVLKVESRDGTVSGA
# Assay comment: Time-dependent inhibition of CYP3A4 in human liver microsomes (testosterone and midazolam probes)
# Format: in vitro ADME
# Condition details: human, pooled human liver microsomes; CYP3A4-T (testosterone probe substrate), 25 μM, after 30 minutes incubation; read-out: % Activity NADPH T30
// reported activity at 30 min, 25 µM per item
Measurement type: activity at 30 min, 25 µM

{"Mol": "C[C@H]1CC[C@H](N2CC(=O)N(Cc3ccc(F)c(Cl)c3)C3(CN(C(N)=O)C3)C2=O)CC1", "Measurement type": "activity at 30 min, 25 µM", "Result value": "100%"}
{"Mol": "C[C@H]1CC[C@H](N2CC(=O)N(Cc3ccc(Cl)cc3)C3(CN(C(N)=O)C3)C2=O)CC1", "Measurement type": "activity at 30 min, 25 µM", "Result value": "85%"}
{"Mol": "CC(C)N1CC(=O)N(Cc2ccc(C(F)(F)F)cc2)C2(CN(c3cccnn3)C2)C1=O", "Measurement type": "activity at 30 min, 25 µM", "Result value": "77%"}
{"Mol": "CC(C)N1CC(=O)N(Cc2ccc(Cl)c(F)c2)C2(CN(c3cccnn3)C2)C1=O", "Measurement type": "activity at 30 min, 25 µM", "Result value": "100%"}
{"Mol": "Cc1cc(CN2C(=O)CN([C@H]3CC[C@H](C)CC3)C(=O)C23CN(C(N)=O)C3)ccc1F", "Measurement type": "activity at 30 min, 25 µM", "Result value": "76%"}
{"Mol": "C[C@H]1CC[C@H](N2CC(=O)N(Cc3ccc(F)c(F)c3)C3(CN(C(N)=O)C3)C2=O)CC1", "Measurement type": "activity at 30 min, 25 µM", "Result value": "87%"}
